Values from ChEMBL document CHEMBL3039007

# target: Solute carrier organic anion transporter family member 1B1 (Homo sapiens)
# Sequence (Q9Y6L6 whole entry): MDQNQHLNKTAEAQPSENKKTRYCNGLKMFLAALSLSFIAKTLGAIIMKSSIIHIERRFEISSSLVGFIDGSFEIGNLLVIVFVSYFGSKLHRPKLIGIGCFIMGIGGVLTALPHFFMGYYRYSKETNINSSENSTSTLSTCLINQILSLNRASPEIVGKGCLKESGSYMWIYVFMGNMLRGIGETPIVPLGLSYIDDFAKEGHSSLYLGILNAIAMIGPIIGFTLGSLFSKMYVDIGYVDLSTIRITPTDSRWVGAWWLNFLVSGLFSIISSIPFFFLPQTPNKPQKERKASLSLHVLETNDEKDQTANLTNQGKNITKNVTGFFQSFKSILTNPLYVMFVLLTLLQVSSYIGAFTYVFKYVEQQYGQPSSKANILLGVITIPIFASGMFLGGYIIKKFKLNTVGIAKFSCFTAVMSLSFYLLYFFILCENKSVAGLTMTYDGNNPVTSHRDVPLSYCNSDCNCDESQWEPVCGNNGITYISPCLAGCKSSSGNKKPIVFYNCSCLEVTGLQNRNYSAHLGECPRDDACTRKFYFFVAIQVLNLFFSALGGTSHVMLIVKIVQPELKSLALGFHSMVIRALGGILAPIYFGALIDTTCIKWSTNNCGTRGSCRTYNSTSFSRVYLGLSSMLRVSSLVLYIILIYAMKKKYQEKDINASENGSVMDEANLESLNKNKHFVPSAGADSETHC
# stated-conditions: chinese hamster, cho, 10 µM
Quick reference for residual activity among some compounds
Give the value in % but do not write % after it.

compound	target	value
O=C(O)CCCc1ccc(N(CCCl)CCCl)cc1 [CHLORAMBUCIL]	Solute carrier organic anion transporter family member 1B1 (Homo sapiens)	123.9
Oc1cc(O)c2c(c1)O[C@H](c1cc(O)c(O)c(O)c1)[C@H](O)[C@H]2c1c(O)cc(O)c2c1O[C@H](c1cc(O)c(O)c(O)c1)[C@H](O)[C@H]2c1c(O)cc(O)c2c1O[C@H](c1cc(O)c(O)c(O)c1)[C@H](O)C2 [KATACINE]	Solute carrier organic anion transporter family member 1B1 (Homo sapiens)	133.4
COc1c(-c2coc3cc4c(cc3c2=O)CC(O)C(C)(C)O4)ccc2c1C=CC(C)(C)O2 (centres undefined) [MUNDULONE]	Solute carrier organic anion transporter family member 1B1 (Homo sapiens)	31.23

residual activity reported for this compound CC1(C)O[C@@H]2C[C@H]3[C@@H]4C[C@H](F)C5=CC(=O)C=C[C@]5(C)[C@H]4[C@@H](O)C[C@]3(C)[C@]2(C(=O)CO)O1 [FLUNISOLIDE] : 55.07

residual activity reported for this compound CC(=O)Oc1ccccc1C(=O)Oc1ccccc1C(=O)O [DIPLOSALSALATE] : 91.69

residual activity reported for this compound O=C(O)C1CC([C@@H]2CCCCN2)CN2CCCCC12 (some centres undefined) [APHYLLIC ACID] : 83.2
